Known inhibition at 1000 µM of a selection of compounds
- Target Or System: PmST1 (Pasteurella multocida, UniProt Q15KI8)
- Protocol: biochemical
- Condition Label: read-out: Percentage inhibition, PmST1
Reported Property: inhibition at 1000 µM (%)

>>> df
                           structure_string  endpoint_value
0  [N-]=[N+]=N[C@@H]1[C@@H](O)[C@H](F)[C@](F)(C(=O)O)O[C@H]1[C@H](O)[C@H](O)CO             7.8
1  O=C(CO)N[C@@H]1[C@@H](O)[C@H](F)[C@](F)(C(=O)O)O[C@H]1[C@H](O)[C@H](O)CO            22.4
2  CC(=O)N[C@@H]1[C@@H](O)[C@H](F)[C@](F)(C(=O)O)O[C@H]1[C@H](O)[C@H](O)CO             4.3
3  CC(=O)N[C@@H]1[C@@H](O)[C@@H](F)[C@](F)(C(=O)O)O[C@H]1[C@H](O)[C@H](O)CO               3
4  CC(=O)N[C@@H]1[C@@H](O)[C@@H](F)[C@](F)(C(=O)O)O[C@H]1[C@H](O)[C@H](O)CN=[N+]=[N-]               6
